Molecular target: CDK4/CyclinD1 (Homo sapiens, UniProt P11802)
Construct: purchased Thermofisher PR8064A
Sequence (P11802 whole entry): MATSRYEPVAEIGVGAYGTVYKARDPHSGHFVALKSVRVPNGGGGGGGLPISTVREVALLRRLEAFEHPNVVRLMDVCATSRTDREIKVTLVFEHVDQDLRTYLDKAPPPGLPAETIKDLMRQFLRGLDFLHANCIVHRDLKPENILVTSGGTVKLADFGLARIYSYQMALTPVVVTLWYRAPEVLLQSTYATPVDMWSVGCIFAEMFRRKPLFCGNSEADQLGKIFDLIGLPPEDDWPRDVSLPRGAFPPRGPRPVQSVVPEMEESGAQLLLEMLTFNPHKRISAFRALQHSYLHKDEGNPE
Sequence (P24385 whole entry partner): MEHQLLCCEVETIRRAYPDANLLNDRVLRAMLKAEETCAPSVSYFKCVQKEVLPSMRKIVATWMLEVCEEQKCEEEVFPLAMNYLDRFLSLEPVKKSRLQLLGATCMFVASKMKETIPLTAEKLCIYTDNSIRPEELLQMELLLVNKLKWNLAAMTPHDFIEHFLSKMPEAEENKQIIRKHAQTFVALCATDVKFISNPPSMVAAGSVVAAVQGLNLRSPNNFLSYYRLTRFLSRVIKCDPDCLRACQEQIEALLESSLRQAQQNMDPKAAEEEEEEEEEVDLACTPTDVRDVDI
Assay: Assay for inhibition of CDK4/CyclinD1 (Caliper microfluidic kinase assay)
Type: biochemical
Settings: CDK4/CyclinD1, 200 μM ATP
Method: The CDK4 enzyme assay for IC50 determination was performed as follows. Microfluidic kinase detection technology (Caliper) was used to monitor the phosphorylation of peptide substrate by CDK4/CyclinD1. […] The plate was then loaded on Caliper EZ Reader (EZ Reader II, PerkinElmer, HD-4HYSG2772), and the reaction mixtures including substrate and product were sipped into the microfluidic chip for separation and detection. […]
pIC50: −log10 of the molar value.
readout-label: pIC50

Recall and state the measured pIC50 for CC(C)c1cnn2ccc(-c3ccnc(Nc4ccc(N5CCC(N(C)CCF)CC5=O)cn4)n3)cc12 (centres unmarked) [compound 170] .
> 8.00

New cases:
Recall and state the measured pIC50 for CC(C)c1cnn2ccc(-c3nc(Nc4ccc(N5CCN(C6CNC6)CCC5=O)cn4)ncc3F)cc12 [compound 42] .
> 8.00

The origin of these recorded values is patent US20220296595A1.
